Attribution: patent US20100292320A1

target: HDAC 1 (Homo sapiens); experiment: HDAC 1 inhibition assay, fluorophore/quencher peptide substrate, 3-hour preincubation; format: biochemical; details: about 3 hours preincubation of enzyme/compound mix at room temperature; read-out: HDAC 1 inhibitory activity (IC50 [μM]) 3-hour preincubation
Sequence (Q13547 whole entry, species assumed): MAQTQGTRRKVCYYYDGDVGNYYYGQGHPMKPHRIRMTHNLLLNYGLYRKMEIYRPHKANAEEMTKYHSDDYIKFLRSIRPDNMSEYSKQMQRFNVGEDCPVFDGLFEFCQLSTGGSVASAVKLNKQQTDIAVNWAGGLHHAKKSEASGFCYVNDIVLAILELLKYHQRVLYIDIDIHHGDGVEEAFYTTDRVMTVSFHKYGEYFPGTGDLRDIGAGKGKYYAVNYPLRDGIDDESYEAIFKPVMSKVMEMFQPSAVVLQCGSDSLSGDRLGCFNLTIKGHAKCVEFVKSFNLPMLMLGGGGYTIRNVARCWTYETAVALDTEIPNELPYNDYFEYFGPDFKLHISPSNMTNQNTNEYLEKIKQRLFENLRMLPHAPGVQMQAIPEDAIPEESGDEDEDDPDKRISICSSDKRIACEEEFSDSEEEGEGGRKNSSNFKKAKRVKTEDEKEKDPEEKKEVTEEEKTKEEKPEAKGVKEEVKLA
value kind: IC50 (µM)
Give bare numbers, in µM.

In: Any idea what IC50 was measured for `CN(C)Cc1c(C(=O)NCCOc2ccc(C(=O)Nc3ccccc3N)cc2)oc2ccccc12` ?
Out: 0.0033

====

molecular target: HDAC 6 (Homo sapiens, UniProt Q9UBN7); assay: HDAC 6 inhibition assay, fluorophore/quencher peptide substrate, no preincubation; assay type: biochemical; details: no preincubation of enzyme and compound; read-out: HDAC 6 inhibitory activity (IC50 [μM]) No preincubation
Sequence (Q9UBN7 whole entry, species assumed): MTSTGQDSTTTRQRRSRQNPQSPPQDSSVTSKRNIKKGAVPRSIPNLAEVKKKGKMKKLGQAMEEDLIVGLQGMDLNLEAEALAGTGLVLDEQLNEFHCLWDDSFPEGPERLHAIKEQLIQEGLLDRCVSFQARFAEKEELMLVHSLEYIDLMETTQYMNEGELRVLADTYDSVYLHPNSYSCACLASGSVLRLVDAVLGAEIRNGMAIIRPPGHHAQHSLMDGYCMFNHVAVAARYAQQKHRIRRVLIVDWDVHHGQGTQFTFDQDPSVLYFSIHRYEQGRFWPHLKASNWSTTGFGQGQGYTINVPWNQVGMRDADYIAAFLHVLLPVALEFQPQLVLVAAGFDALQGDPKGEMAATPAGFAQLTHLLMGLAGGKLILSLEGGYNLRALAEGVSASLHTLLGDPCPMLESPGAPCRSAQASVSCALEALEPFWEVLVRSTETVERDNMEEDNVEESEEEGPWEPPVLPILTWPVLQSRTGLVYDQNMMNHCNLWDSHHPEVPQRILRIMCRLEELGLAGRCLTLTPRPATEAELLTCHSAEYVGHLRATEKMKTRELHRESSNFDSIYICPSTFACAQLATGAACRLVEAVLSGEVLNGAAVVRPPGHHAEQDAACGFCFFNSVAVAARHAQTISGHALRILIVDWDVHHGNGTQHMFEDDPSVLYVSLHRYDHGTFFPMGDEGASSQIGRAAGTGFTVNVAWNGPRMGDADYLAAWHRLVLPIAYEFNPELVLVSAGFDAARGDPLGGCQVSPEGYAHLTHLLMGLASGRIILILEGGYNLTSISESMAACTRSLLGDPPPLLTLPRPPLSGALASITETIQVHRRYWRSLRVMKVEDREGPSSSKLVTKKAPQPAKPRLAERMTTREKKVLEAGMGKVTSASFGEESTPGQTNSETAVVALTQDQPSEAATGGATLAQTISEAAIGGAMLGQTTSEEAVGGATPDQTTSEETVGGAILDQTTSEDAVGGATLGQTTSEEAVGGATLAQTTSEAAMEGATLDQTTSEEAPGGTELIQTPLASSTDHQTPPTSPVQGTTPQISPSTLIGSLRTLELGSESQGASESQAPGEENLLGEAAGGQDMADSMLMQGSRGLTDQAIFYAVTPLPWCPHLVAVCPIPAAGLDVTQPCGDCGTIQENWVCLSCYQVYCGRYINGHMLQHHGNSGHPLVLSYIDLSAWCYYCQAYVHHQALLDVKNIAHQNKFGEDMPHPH
value kind: IC50

In: Which measured IC50 belongs to CN(C)Cc1c(C(=O)NCCOc2ccc(C(=O)Nc3ccccc3N)cc2)oc2ccccc12 [Example 1] , tested on HDAC 6 (Homo sapiens, UniProt Q9UBN7)?
Out: > 50 µM
